- TESTED_SYSTEM: FSHR (Homo sapiens)
- Construct: expressed in transfected cells; host or cells: CHO (Cho-FSHR-LUC-1-1-43)
- EXPERIMENT_SUMMARY: EC50 of cyclic AMP production in CHO FSHR cells + EC20 FSH (Assay A)
- Type: cell-based
- CONDITION_DETAILS: CHO FSHR cells + EC20 FSH, cAMP HTRF; read-out: Assay A: EC50 of cyclic AMP production
pEC50: −log10 of the molar value.
pEC50 by entry:

Would you please look over these solved cases?
# MOLECULE, pEC50
rows = [
    ("CNC(=O)C1CCCN(C(=O)c2nn(-c3ccsc3)c3c2COc2cc(OC)c(C=C(C)C)cc2-3)CC1 (stereo not shown)", "6.00 to 7.00"),
    ("COc1cc2c(cc1-c1cnc(C)n1C)-c1c(c(C(=O)N(C)C(C)(C)C)nn1-c1ccsc1)CO2", "> 7.00"),
    ("COc1cc2c(cc1-c1cnn(C(=O)OC(C)(C)C)c1)-c1c(c(C(=O)N(C)C(C)(C)C)nn1-c1ccsc1)CO2", "6.00 to 7.00"),
]

# context switch: different molecule, same pEC50
Prompt: Give the measured pEC50 of COc1cc2c(cc1-c1cn(C)nc1C)-c1c(c(C(=O)N3CCOCC3(C)C)nn1-c1ccsc1)CO2 .
Response: > 7.00

---

- TESTED_SYSTEM: FSHR (Homo sapiens)
- Construct: expressed in transfected cells; host or cells: CHO (Cho-FSHR-LUC-1-1-43)
- EXPERIMENT_SUMMARY: EC50 of cyclic AMP production in CHO FSHR cells + EC20 FSH (Assay A)
- Type: cell-based
- CONDITION_DETAILS: CHO FSHR cells + EC20 FSH, cAMP HTRF; read-out: Assay A: EC50 of cyclic AMP production
PROPERTY_LABEL: EC50

# COMPOUND, TESTED_SYSTEM, EC50
measured = [
    ("COc1ccc2c(c1)OCc1c(C(=O)N3CCOCC3(C)C)nn(-c3ccsc3)c1-2 [Compound 128]", "FSHR (Homo sapiens)", "> 5000 nM"),
    ("COc1cc2c(cc1-c1ccn(C)c1)-c1c(c(C(=O)N3CCN(C)CC3(C)C)nn1-c1ccsc1)CO2 [Compound 160]", "FSHR (Homo sapiens)", "< 100 nM"),
    ("COc1cc2c(cc1OC(C)C)-c1c(c(C(=O)N3CCCC(C(=O)O)CC3)nn1-c1ccsc1)CO2 (centres unmarked) [Compound 25]", "FSHR (Homo sapiens)", "> 5000 nM"),
    ("COc1cc2c(cc1-c1ccnn1C)-c1c(c(C(=O)N(C)C(C)(C)C)nn1-c1ccsc1)CO2 [Compound 64]", "FSHR (Homo sapiens)", "< 100 nM"),
]

Prompt: Provide the documented EC50 with FSHR (Homo sapiens) as the system for COc1cc2c(cc1-c1ccn(C)n1)-c1c(c(C(=O)N(C)C(C)(C)C)nn1-c1ccsc1)CO2 [Compound 63]
Response: < 100 nM

---

Entries and their EC50 values follow.
- TESTED_SYSTEM: FSHR (Homo sapiens)
- Construct: expressed in transfected cells; host or cells: CHO (Cho-FSHR-LUC-1-1-43)
- EXPERIMENT_SUMMARY: EC50 of cyclic AMP production in CHO FSHR cells + EC20 FSH (Assay A)
- Assay type: cell-based
- CONDITION_DETAILS: CHO FSHR cells + EC20 FSH, cAMP HTRF; read-out: Assay A: EC50 of cyclic AMP production

Prompt: Entry [2H]C([2H])([2H])N(C(=O)c1nn(-c2ccsc2)c2c1COc1cc(OC)c(-c3ccn(C)c3)cc1-2)C1CCOC1 (stereo not shown) has what EC50?
Response: 100 to 1000 nM

Prompt: Quick one: EC50 for COc1cc2c(cc1C1=CCOC1)-c1c(c(C(=O)N(C)C(C)(C)C)nn1-c1ccsc1)CO2 ?
Response: < 100 nM

Prompt: For COc1cc2c(cc1C=C(C)C)-c1c(c(C(=O)N3CCCC(NC(=O)C4CCC4)CC3)nn1-c1ccsc1)CO2 (stereo not shown) , what is its reported EC50?
Response: 1000 to 5000 nM

Prompt: I have this molecule here, COc1cc2c(cc1-c1ccn(C)n1)-c1c(c(C(=O)N3CCOCC3(C)C)nn1-c1ccsc1)CO2 , and I need its recorded EC50.
Response: < 100 nM

Prompt: Reported EC50 for CCn1nccc1-c1cc2c(cc1OC)OCc1c(C(=O)N3CCOCC3(C)C)nn(-c3ccsc3)c1-2 : what is it?
Response: < 100 nM

Prompt: Which value of EC50 has been reported for COc1cc2c(cc1-c1cn(C)nc1C)-c1c(c(C(=O)N(C)C(C)(C)C)nn1-c1ccsc1)CO2 in the records?
Response: < 100 nM

Prompt: # query: EC50 of entry COc1cc2c(cc1C=C(C)C)-c1c(c(C(=O)NC3CCCC(C(=O)OC(C)(C)C)C3)nn1-c1ccsc1)CO2 (stereo not shown)
Response: > 5000 nM

---

- TESTED_SYSTEM: FSHR (Homo sapiens, UniProt P23945)
- Construct: expressed in transfected cells; host or cells: CHO (Cho-FSHR-LUC-1-1-43)
- Sequence (P23945 18-695): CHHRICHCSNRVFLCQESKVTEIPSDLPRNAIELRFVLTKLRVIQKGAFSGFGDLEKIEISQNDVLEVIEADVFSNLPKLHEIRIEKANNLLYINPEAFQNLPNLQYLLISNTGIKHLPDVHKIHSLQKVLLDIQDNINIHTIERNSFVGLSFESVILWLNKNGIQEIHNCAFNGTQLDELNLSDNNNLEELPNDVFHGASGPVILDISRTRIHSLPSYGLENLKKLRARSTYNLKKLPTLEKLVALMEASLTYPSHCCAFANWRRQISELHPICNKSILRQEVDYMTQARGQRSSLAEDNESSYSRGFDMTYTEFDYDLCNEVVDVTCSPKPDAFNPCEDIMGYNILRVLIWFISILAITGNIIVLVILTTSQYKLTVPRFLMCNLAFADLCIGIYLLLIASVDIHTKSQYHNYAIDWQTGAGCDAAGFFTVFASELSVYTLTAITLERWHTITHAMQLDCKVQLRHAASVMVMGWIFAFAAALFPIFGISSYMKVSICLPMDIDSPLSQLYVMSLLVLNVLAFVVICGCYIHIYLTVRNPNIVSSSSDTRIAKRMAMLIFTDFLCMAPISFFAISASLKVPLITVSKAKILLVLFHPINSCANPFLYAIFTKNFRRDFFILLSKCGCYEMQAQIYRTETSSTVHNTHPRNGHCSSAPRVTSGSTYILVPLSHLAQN
- EXPERIMENT_SUMMARY: EC50 of cyclic AMP production in CHO FSHR cells + EC20 FSH (Assay A)
- Format: cell-based
- CONDITION_DETAILS: CHO FSHR cells + EC20 FSH, cAMP HTRF; read-out: Assay A: EC50 of cyclic AMP production
PROPERTY_LABEL: EC50

# MOLECULE, EC50
rows = [
    ("COc1cc2c(cc1-c1ccn(C)c1)-c1c(c(C(=O)N3CCN(C(=O)OC(C)(C)C)CC3(C)C)nn1-c1ccsc1)CO2", "100 to 1000 nM"),
    ("COc1cc2c(cc1-c1cnoc1)-c1c(c(C(=O)N(C)C(C)(C)C)nn1-c1ccsc1)CO2", "< 100 nM"),
    ("[2H]C([2H])([2H])OCC1(C)CCCN1C(=O)c1nn(-c2ccsc2)c2c1COc1cc(OC)c(-c3ccn(C)c3)cc1-2 (centres unmarked)", "< 100 nM"),
    ("COc1cc2c(cc1C=C(C)C)-c1c(c(C(=O)N3CCC(C(=O)O)CC3)nn1-c1ccsc1)CO2", "> 5000 nM"),
    ("COc1cc2c(cc1-c1c(C)cnn1C)-c1c(c(C(=O)N(C)C(C)(C)C)nn1-c1ccsc1)CO2", "< 100 nM"),
    ("[2H]C([2H])([2H])N(C(=O)c1nn(-c2ccsc2)c2c1COc1cc(OC)c(-c3ccn(C)c3)cc1-2)C1(C)COC1", "< 100 nM"),
]

Prompt: Looking for the measured EC50 of COc1cc2c(cc1SC(C)C)-c1c(c(C(=O)N(C)C(C)(C)C)nn1-c1ccsc1)CO2 , can you help?
Response: < 100 nM

Prompt: Field request: EC50 | item: COc1cc2c(cc1C1=CCCO1)-c1c(c(C(=O)N(C)C(C)(C)C)nn1-c1ccsc1)CO2
Response: < 100 nM

Prompt: Need EC50, item COc1cc2c(cc1-c1cccnc1)-c1c(c(C(=O)N3CCCN(C(=O)C4CCC4)CC3)nn1-c1ccsc1)CO2
Response: < 100 nM

Prompt: Entry under review: COc1cc2c(cc1C=C(C)C)-c1c(c(C(=O)N3CCCC(C(N)=O)CC3)nn1-c1ccsc1)CO2 (centres unmarked) . Reported EC50?
Response: < 100 nM

Prompt: Which EC50 reading was recorded for the molecule COc1cc2c(cc1-c1ccn(C)n1)-c1c(c(C(=O)NC3(C)COC3)nn1-c1ccsc1)CO2 ?
Response: 100 to 1000 nM

Prompt: # EC50 lookup, item COc1cc2c(cc1-c1c(C)nn(C)c1C)-c1c(c(C(=O)N3CCOCC3(C)C)nn1-c1ccsc1)CO2
Response: < 100 nM

Prompt: Item under review: COc1cc2c(cc1-c1cc(C)nn1C)-c1c(c(C(=O)N3CCOCC3(C)C)nn1-c1ccsc1)CO2 . Reported EC50?
Response: < 100 nM

Prompt: Suppose we examine the molecule [2H]C([2H])([2H])N(C(=O)c1nn(-c2ccsc2)c2c1COc1cc(OC)c(-c3ccn(C)n3)cc1-2)C1CCOC1 (centres unmarked) ; what EC50 value has been reported?
Response: 1000 to 5000 nM

Prompt: Any idea what EC50 was measured for COc1cc2c(cc1C=C(C)C)-c1c(c(C(=O)N3CCCC(NC(=O)OC(C)(C)C)CC3)nn1-c1ccsc1)CO2 (centres unmarked) ?
Response: 1000 to 5000 nM

Prompt: Which EC50 is listed for COc1cc2c(cc1-c1cnn(C3CC3)c1)-c1c(c(C(=O)N3CCOCC3(C)C)nn1-c1ccsc1)CO2 ?
Response: < 100 nM

Prompt: Record request: EC50 value, item COc1cc2c(cc1-c1cc(C)n(C)c1C)-c1c(c(C(=O)N3CCOCC3(C)C)nn1-c1ccsc1)CO2
Response: < 100 nM
